- Tested system: T1, human gastric inhibitory peptide receptor (GIPR) (human, UniProt P48546 22-466)
- T1 sequence (looked up): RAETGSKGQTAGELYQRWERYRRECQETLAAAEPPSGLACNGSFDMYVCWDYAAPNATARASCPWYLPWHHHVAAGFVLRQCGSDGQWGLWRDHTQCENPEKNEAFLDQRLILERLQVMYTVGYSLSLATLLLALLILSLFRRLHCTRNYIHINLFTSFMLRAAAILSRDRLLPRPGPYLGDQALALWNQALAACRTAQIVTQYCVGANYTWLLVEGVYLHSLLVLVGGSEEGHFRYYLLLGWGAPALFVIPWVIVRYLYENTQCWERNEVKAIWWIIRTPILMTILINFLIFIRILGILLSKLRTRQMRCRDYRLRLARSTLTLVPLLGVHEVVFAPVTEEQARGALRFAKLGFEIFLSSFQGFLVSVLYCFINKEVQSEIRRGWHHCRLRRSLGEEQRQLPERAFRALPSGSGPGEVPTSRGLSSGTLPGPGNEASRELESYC
- Protocol: cell-based or functional assay
Numbered stars: 1 amine (or outer) side, 2 acyl side, 3 side chain; on linkers, the order of the positions; unused ones are H or OH. Square brackets hold non-standard residues; d marks the D form. Side chains are listed from the residue outwards. Ends that are not written are not given here. * marks the point of attachment. C20 diacid = O=C(O)CCCCCCCCCCCCCCCCCCC(=O)*; γGlu = O=C(O)[C@H](CCC(=O)[*:2])N[*:1]; αMeF = C[C@](N)(Cc1ccccc1)C(=O)O; cTA = not defined here; AEEA = NCCOCCOCC(=O)O; Aib = CC(C)(N)C(=O)O
Readout label: hGIPR cAMP Rel EC50 (nM)
Quick reminder: number only, in nM, skip the unit.

Answered cases to consult:
binder="Y[Aib]EGT[αMeF]TSDYSIXLDKK([AEEA-AEEA-γGlu-C20 diacid])AQ[Aib]EFI[dE]YLIEGGPSSG-NH2 (not fully specified (residue 13); printed as Y-Aib-EGT-αMeF-TSDYSI-αMeF-LDKK((2-[2-(2-Amino-ethoxy)-ethoxy]-acetyl)2-(γ-Glu)-CO-(CH2)18-CO2H)AQ-Aib-EFI-(D-Glu)-YLIEGGPSSG-NH2) [Example 228]" numeric_result=0.0503
binder="Y[Aib][cTA]GT[αMeF]TSDYSIXLDEK([AEEA-AEEA-γGlu-C20 diacid])AQ[Aib]AFIEYLIEGGPSSGAPPPS-NH2 (not fully specified (residue 13); printed as Y-Aib-cTA-GT-αMeF-TSDYSI-αMeF-LDEK((2-[2-(2-Amino-ethoxy)-ethoxy]-acetyl)2-(γ-Glu)-CO-(CH2)18-CO2H)AQ-Aib-AFIEYLIEGGPSSGAPPPS-NH2) [Example 120]" numeric_result=0.122

// below: hGIPR cAMP Rel EC50 requested for another binder
Q) Give its hGIPR cAMP Rel EC50 value. Item: YXEGTXTSDHSIXLDEKAQXHFIXYLIEGGPSSGAPPPS (Y-Aib-EGT-αMeF(2F)-TSDHSI-αMeF-LDEK((2-[2-(2-Amino-ethoxy)-ethoxy]-acetyl)2-(γ-Glu)-CO-(CH2)16-CO2H)AQ-Aib-HFI-(D-Glu)-YLIEGGPSSGAPPPS-NH2) [Example 177]
A) 1.4
